Read-out: Cytochrome P450 (CYP1A2), CYP1A2 (gene 1544)
measurement-protocol: LTEA_HepaRG_CYP1A2: Life Technologies and Expression Analysis (LTEA) Assay for Cytochrome P450 (CYP1A2) using HepaRG (AID 2283479)
reported-conditions: mRNA level, 48 h; actives raise or lower the signal
Experimental: LTEA_HepaRG is a cell based, multiplexed-readout assay that uses HepaRG, a human liver cell line, with measurements taken at 48 hours after chemical dosing on a 96-well plate.LTEA_HepaRG_CYP1A2 is one of 102 assay component(s) measured in the LTEA HepaRG cell culture assay. It is a marker of NR mediated metabolism.Data from the assay component LTEA_HepaRG_CYP1A2 was analyzed into 1 endpoint. […]
Calls of active or inactive are those of the source. How the source made its calls: active means hit-call score of the fitted dose curve at least 0.9, where 1 is the maximum; inactive means score below 0.9.
Hi! Could you answer with just one of these? active, inactive

{"columns": ["molecule", "label-value"],
 "data": [
  ["CCCSC(=O)N(CCC)CCC", "inactive"]
]}

Consider the record given below.
Query string: Any idea what this test logged for COc1cc(C=O)cc2c1[C@H](COC(N)=O)[C@]1(OC(C)=O)ON2C[C@H]2[C@@H]1N2C(C)=O ?
Result string: inactive
